The reported numbers originate from paper PMC8126888.

- test: in vitro
- setup conditions: mouse, microsomes, pH 7.4, MLM CLint (uL/min/mg), mouse liver microsomes
Could you please mark yes for values of microsomal CLint at 0.5 μM below 400 µL/min/mg and no for values at or above it?

# example entries with known answers
CCCCC1Nc2cc(Cl)c(S(N)(=O)=O)cc2S(=O)(=O)N1Cc1ccccc1 (centres unmarked) [DNDI0003392147] :: yes
COc1ccc(C#N)cc1S(=O)(=O)N(Cc1ccccc1)Cc1cnc(C(F)(F)F)nc1 [DNDI0003425527] :: yes
COc1ccc(S(=O)(=O)N2CCOCC2)cc1C(=O)N(Cc1ccc(F)cc1)Cc1ccc(F)cc1 [DNDI0003389643] :: no
COc1ccc(C(=O)N2CCOCC2)cc1S(=O)(=O)N(Cc1ccc(F)cc1)CC(C)C [DNDI0003389127] :: yes
COc1ccc(OC)c(S(=O)(=O)N(Cc2ccc(F)cc2)Cc2ccnn2C)c1 [DNDI0003389129] :: no
COc1ccc(N2CCN(C)CC2)cc1S(=O)(=O)N(Cc1ccc(F)cc1)Cc1ccc(F)cc1 [DNDI0003389645] :: yes
COc1ccc(S(C)(=O)=O)cc1S(=O)(=O)N(Cc1ccccc1)Cc1cc(C(F)(F)F)nn1C [DNDI0003578374] :: yes
COc1cc2c(cc1S(=O)(=O)N(Cc1ccccc1)Cc1ccccc1)S(=O)(=O)NCN2 [DNDI0003425513] :: yes

[ask] Report whether reported microsomal CLint at 0.5 μM is lower than 400 µL/min/mg (strictly) for COc1ccc(N2CCOCC2)cc1S(=O)(=O)N(Cc1ccc(F)cc1)Cc1ccc(F)cc1 [DNDI0003389118]
[reply] no

====

- System: MRC-5SV2 cells
- test: Cytotoxicity assay on MRC-5SV2 cells (resazurin)
assay metric: CC50

COc1ccc(S(=O)(=O)N(C)C)cc1NC(=O)Cn1c(C)cc2ccccc21 [Compound Z109062140] :: > 32 µM
COC(=O)c1cccc(C(=O)Nc2cccc(S(=O)(=O)N3CCCC3)c2)n1 [Compound Z441654950] :: > 32 µM
CCN(CC)S(=O)(=O)c1ccc(OC)c(NC(=O)CNc2cccc3c2CCCC3)c1 [Compound Z133511332] :: > 32 µM
CN(C)S(=O)(=O)c1cccc(NC(=O)CN2CCCc3cc(F)cc(F)c32)c1 [Compound Z369155588] :: > 32 µM
CN(Cc1ccccc1NCC(=O)Nc1cccc(S(=O)(=O)N(C)C)c1)C1CCCCC1 [Compound Z31013342] :: > 32 µM
CCCCNS(=O)(=O)c1cccc(NC(=O)c2cnc(C)cn2)c1 [Compound Z88583029] :: > 32 µM
COC(=O)c1c(C)[nH]c(C(=O)Nc2cccc(S(=O)(=O)N3CCCC3)c2)c1C [Compound Z30224758] :: > 32 µM
CC1CCc2ccccc2N1CC(=O)Nc1ccc(Cl)c(S(=O)(=O)N(C)C)c1 (stereo not drawn) [Compound Z46500410] :: > 32 µM
COC(=O)c1c(C)[nH]c(C(=O)Nc2cccc(S(C)(=O)=O)c2)c1C [Compound Z109929482] :: > 32 µM
CC1Cc2ccccc2N1CC(=O)Nc1ccc(Cl)c(S(=O)(=O)N(C)C)c1 (stereo not drawn) [Compound Z30956600] :: > 32 µM

[ask] Please give the measured CC50 for this compound: O=S(=O)(NCc1cccs1)c1ccc2c(c1)CCCC2 [Compound Z45423905]
[reply] 27.1 µM

[ask] Consider next the compound Fc1cccc(Cl)c1CNc1ccccc1-n1cccn1 [Compound Z739504072] in the same way.
[reply] > 32 µM

[ask] Consider next the compound COc1cc(S(=O)(=O)N2CCN(Cc3ccccc3)CC2)c(OC)cc1C [Compound Z1532943652] in the same way.
[reply] > 32 µM

[ask] Consider next the compound Cc1ccc(NC(=O)c2[nH]c(C)c(C(=O)OC(C)C)c2C)cc1S(=O)(=O)N1CCCCC1 [Compound Z51733284] in the same way.
[reply] 3.11 µM

[ask] Consider next the compound COc1ccc(S(=O)(=O)N(C)C)cc1NC(=O)Cn1c(=O)oc2ccccc21 [Compound Z15399918] in the same way.
[reply] > 32 µM

[ask] Consider next the compound Cc1ccc(NC(=O)CN(CC(C)C)c2cccc(O)c2)cc1S(=O)(=O)N(C)C [Compound Z1317978681] in the same way.
[reply] 28.4 µM

[ask] Consider next the compound CC1CCc2ccccc2N1CC(=O)N1CCCc2cc(S(=O)(=O)N(C)C)ccc21 (stereo not drawn) [Compound Z195652240] in the same way.
[reply] > 32 µM

[ask] Consider next the compound CCc1c(C(=O)N2CCc3ccc(S(=O)(=O)NC)cc32)[nH]c(C)c1C(C)=O [Compound Z1262206860] in the same way.
[reply] > 32 µM

[ask] Consider next the compound CCOC(=O)c1c(C)[nH]c(C(=O)Nc2ccc(Cl)c(S(=O)(=O)N3CCCCC3)c2)c1C [Compound Z30461235] in the same way.
[reply] 2.17 µM

[ask] Consider next the compound CCc1c(C(=O)Nc2cc(S(=O)(=O)NC)ccc2C)[nH]c(C)c1C(C)=O [Compound Z792473370] in the same way.
[reply] > 32 µM

[ask] Consider next the compound CCCCNS(=O)(=O)c1cccc(NC(=O)c2cc(C)c(C)s2)c1 [Compound Z88584860] in the same way.
[reply] > 32 µM

====

- test: in vitro
- setup conditions: Swiss, mouse
# IC50 per record follows

Take a look at these entries with their results.
COc1ccc(OC)c(S(=O)(=O)N(Cc2ccccc2)C2CCNCC2)c1 :: 45.2 µM
O=S(=O)(c1ccccc1OC(F)(F)F)N(Cc1ccccc1)Cc1ccccc1 :: 32 µM
COc1ccc(Cl)cc1S(=O)(=O)N(Cc1ccccc1)Cc1ccccc1 :: > 64 µM
CC(=O)Nc1ccc(S(=O)(=O)N(CCN(C)C)Cc2ccccc2)cc1 :: > 64 µM

[ask] Please give the measured IC50 for this molecule: `COc1ccc(Cl)cc1S(=O)(=O)N(Cc1ccccc1)OC`
[reply] > 64 µM

[ask] Consider next the molecule `CCN(Cc1ccccc1)S(=O)(=O)c1ccc(OC)cc1` in the same way.
[reply] > 64 µM

[ask] Consider next the molecule `COCCN(Cc1ccccc1)S(=O)(=O)c1ccc(NC(C)=O)cc1` in the same way.
[reply] > 64 µM

[ask] Consider next the molecule `COCCN(Cc1ccccc1)S(=O)(=O)c1ccccc1` in the same way.
[reply] > 64 µM

[ask] Consider next the molecule `O=S(=O)(NCc1ccccc1)c1ccccc1` in the same way.
[reply] > 64 µM

====

- test: in vitro
- setup conditions: human, HepG2 cells
assay metric: CC50

O=S(=O)(c1cc(F)ccc1F)N(Cc1ccccc1)C(CO)c1ccc(F)cc1 (stereo not shown) :: 24.4 µM
O=S1(=O)NCNc2cc(Cl)c(S(=O)(=O)N(Cc3ccccc3)Cc3ccccc3)cc21 :: > 64 µM
CS(=O)(=O)c1ccccc1S(=O)(=O)N(Cc1ccccc1)Cc1ccccc1 :: > 64 µM

Next, consider the following compound.
[ask] Please give the measured CC50 for this compound: `NS(=O)(=O)c1cc2c(cc1Cl)NCN(Cc1ccccc1)S2(=O)=O`
[reply] > 64 µM

====

- test: in vitro
- setup conditions: PAMPA
Could you please mark true for values of Papp below 3 ×10⁻⁶ cm/s and false for values at or above it?

# example entries with known answers
CN(C)CCN(Cc1ccccc1)S(=O)(=O)c1ccc(NC(=O)CCCO)cc1 [DNDI0003368293] :: true
COc1ccc(C#N)cc1S(=O)(=O)N(Cc1ccc(F)cc1)Cc1ccccn1 [DNDI0003370083] :: false
COc1ncccc1S(=O)(=O)N(Cc1ccc(F)cc1)Cc1ccc(F)cc1 [DNDI0003371169] :: true
COc1ccc(OC)c(S(=O)(=O)N(Cc2ccc(F)cc2)c2ccc(F)cc2)c1 [DNDI0003371170] :: true
O=C(CN(Cc1ccccc1)S(=O)(=O)c1cc(F)ccc1F)c1ccc(F)cc1 [DNDI0003371157] :: true

[ask] Report whether reported Papp is lower than 3 ×10⁻⁶ cm/s (strictly) for Nc1ncccc1S(=O)(=O)N(Cc1ccc(F)cc1)Cc1ccc(F)cc1 [DNDI0003371163]
[reply] true

====

- test: physchem
- setup conditions: HPLC, Ascentis Express RP Amide column, pH 7.4, eLogD
Record T whenever chromatographic logD is at 4 or higher; record F when lower.

# example entries with known answers
COCCN(Cc1ccccc1)S(=O)(=O)c1ccc(NC(C)=O)cc1 :: F
COc1ccc(OC)c(S(=O)(=O)N(Cc2ccccc2)C2CCNCC2)c1 :: F
CC[C@H](Cc1ccccc1)[S+]([O-])c1ccccc1OC (stereo partly drawn) :: F
CCN(Cc1ccccc1)S(=O)(=O)c1cc(Cl)ccc1OC :: T
O=S(=O)(NCc1ccccc1)c1ccccc1 :: F

[ask] Determine whether measured chromatographic logD meets or exceeds 4 for `CCN(Cc1ccccc1)S(=O)(=O)c1ccccc1OC(F)(F)F`
[reply] T

[ask] Consider next the compound `COc1ccc(Cl)cc1S(=O)(=O)N(Cc1ccccc1)OC` in the same way.
[reply] T

[ask] Consider next the compound `CCN(Cc1ccccc1)S(=O)(=O)c1ccccc1C#N` in the same way.
[reply] F
